Experiment: Example 5: degradation over time of black currant anthocyanosides at 37° C., pH 7.0, with/without GSH (HPLC)
Type: physicochemical
Settings: GSH protected sample (20 mg), pH 7.0, 37° C., 2:45 h
Protocol: Sample a) 60 mg black currant extract [35% anthocyanosides] (0.037 mmol anthocyanosides expressed as cyanidin-3-O-rutinoside) were added to a 100 ml flask, filled to volume with sodium phosphate buffer (5% [w/w], pH=7.0) and stirred until dissolution was complete. A 1 ml sample was taken immediately, acidified with formic acid to pH=1.0 and analyzed by HPLC for the content of anthocyanosides. The remaining solution was kept at 37° C. […] The samples were analyzed for selected anthocyanosides by HPLC. […]
outcome-measure: Peak Area

# molecule, Peak Area
records = [
    ("C[C@@H]1O[C@@H](OC[C@H]2O[C@@H](Oc3cc4c(O)cc(O)cc4[o+]c3-c3ccc(O)c(O)c3)[C@H](O)[C@@H](O)[C@@H]2O)[C@H](O)[C@H](O)[C@H]1O [Cn-3-O-Rut, Cyanidin-3-O-rutinoside]", 2447.1),
    ("C[C@@H]1O[C@@H](OC[C@H]2O[C@@H](Oc3cc4c(O)cc(O)cc4[o+]c3-c3cc(O)c(O)c(O)c3)[C@H](O)[C@@H](O)[C@@H]2O)[C@H](O)[C@H](O)[C@H]1O [Dp-3-O-Rut, Delphinidin-3-O-rutinoside]", 3199.5),
]

[I] OC[C@H]1O[C@@H](Oc2cc3c(O)cc(O)cc3[o+]c2-c2ccc(O)c(O)c2)[C@H](O)[C@@H](O)[C@@H]1O [Cn-3O-Glc, Cyanidin 3-o-glucoside]
[II] OC[C@H]1O[C@@H](Oc2cc3c(O)cc(O)cc3[o+]c2-c2cc(O)c(O)c(O)c2)[C@H](O)[C@@H](O)[C@@H]1O [Dp-3O-Glc, Delphinidin 3-o-glucoside]
Problem: Of the two listed items, which has the higher Peak Area? First: I Second: II Bench note: the answer is the label of the chosen record.
Solution: II

* * *

Experiment: Example 5: degradation over time of black currant anthocyanosides at 37° C., pH 7.0, with/without GSH (HPLC)
Assay type: physicochemical
Conditions: Blank sample, pH 7.0, 37° C., 1:00 h
Protocol: Sample a) 60 mg black currant extract [35% anthocyanosides] (0.037 mmol anthocyanosides expressed as cyanidin-3-O-rutinoside) were added to a 100 ml flask, filled to volume with sodium phosphate buffer (5% [w/w], pH=7.0) and stirred until dissolution was complete. A 1 ml sample was taken immediately, acidified with formic acid to pH=1.0 and analyzed by HPLC for the content of anthocyanosides. The remaining solution was kept at 37° C. […] The samples were analyzed for selected anthocyanosides by HPLC. […]
outcome-measure: Peak Area

# compound, Peak Area
data = [
    ("C[C@@H]1O[C@@H](OC[C@H]2O[C@@H](Oc3cc4c(O)cc(O)cc4[o+]c3-c3cc(O)c(O)c(O)c3)[C@H](O)[C@@H](O)[C@@H]2O)[C@H](O)[C@H](O)[C@H]1O [Dp-3-O-Rut, Delphinidin-3-O-rutinoside]", 2660.6),
]

[P] C[C@@H]1O[C@@H](OC[C@H]2O[C@@H](Oc3cc4c(O)cc(O)cc4[o+]c3-c3ccc(O)c(O)c3)[C@H](O)[C@@H](O)[C@@H]2O)[C@H](O)[C@H](O)[C@H]1O [Cn-3-O-Rut, Cyanidin-3-O-rutinoside]
[Q] OC[C@H]1O[C@@H](Oc2cc3c(O)cc(O)cc3[o+]c2-c2ccc(O)c(O)c2)[C@H](O)[C@@H](O)[C@@H]1O [Cn-3O-Glc, Cyanidin 3-o-glucoside]
[R] OC[C@H]1O[C@@H](Oc2cc3c(O)cc(O)cc3[o+]c2-c2cc(O)c(O)c(O)c2)[C@H](O)[C@@H](O)[C@@H]1O [Dp-3O-Glc, Delphinidin 3-o-glucoside]
Problem: Ranking field: Peak Area; order: falling. Note for the reader: the ranking is given by listing the labels in the order requested.
Solution: P, R, Q

* * *

test: Example 5: degradation over time of black currant anthocyanosides at 37° C., pH 7.0, with/without GSH (HPLC); format: physicochemical; details: Blank sample, pH 7.0, 37° C., 1:45 h
outcome-measure: Peak Area

# compound, Peak Area
data = [
    ("C[C@@H]1O[C@@H](OC[C@H]2O[C@@H](Oc3cc4c(O)cc(O)cc4[o+]c3-c3cc(O)c(O)c(O)c3)[C@H](O)[C@@H](O)[C@@H]2O)[C@H](O)[C@H](O)[C@H]1O [Dp-3-O-Rut, Delphinidin-3-O-rutinoside]", 2291.6),
]

[A] C[C@@H]1O[C@@H](OC[C@H]2O[C@@H](Oc3cc4c(O)cc(O)cc4[o+]c3-c3ccc(O)c(O)c3)[C@H](O)[C@@H](O)[C@@H]2O)[C@H](O)[C@H](O)[C@H]1O [Cn-3-O-Rut, Cyanidin-3-O-rutinoside]
[B] OC[C@H]1O[C@@H](Oc2cc3c(O)cc(O)cc3[o+]c2-c2ccc(O)c(O)c2)[C@H](O)[C@@H](O)[C@@H]1O [Cn-3O-Glc, Cyanidin 3-o-glucoside]
[C] OC[C@H]1O[C@@H](Oc2cc3c(O)cc(O)cc3[o+]c2-c2cc(O)c(O)c(O)c2)[C@H](O)[C@@H](O)[C@@H]1O [Dp-3O-Glc, Delphinidin 3-o-glucoside]
Problem: Highest Peak Area first, then in falling order down to the smallest. Order the labels as requested and give them as your answer.
Solution: A, C, B

* * *

Assay: Example 5: degradation over time of black currant anthocyanosides at 37° C., pH 7.0, with/without GSH (HPLC)
Type: physicochemical
Conditions: GSH protected sample (20 mg), pH 7.0, 37° C., 3:00 h
Protocol: Sample a) 60 mg black currant extract [35% anthocyanosides] (0.037 mmol anthocyanosides expressed as cyanidin-3-O-rutinoside) were added to a 100 ml flask, filled to volume with sodium phosphate buffer (5% [w/w], pH=7.0) and stirred until dissolution was complete. A 1 ml sample was taken immediately, acidified with formic acid to pH=1.0 and analyzed by HPLC for the content of anthocyanosides. The remaining solution was kept at 37° C. […] The samples were analyzed for selected anthocyanosides by HPLC. […]
outcome-measure: Peak Area

Past entries and their recorded results:
# compound, Peak Area
records = [
    ("OC[C@H]1O[C@@H](Oc2cc3c(O)cc(O)cc3[o+]c2-c2cc(O)c(O)c(O)c2)[C@H](O)[C@@H](O)[C@@H]1O [Dp-3O-Glc, Delphinidin 3-o-glucoside]", 917.2),
    ("C[C@@H]1O[C@@H](OC[C@H]2O[C@@H](Oc3cc4c(O)cc(O)cc4[o+]c3-c3ccc(O)c(O)c3)[C@H](O)[C@@H](O)[C@@H]2O)[C@H](O)[C@H](O)[C@H]1O [Cn-3-O-Rut, Cyanidin-3-O-rutinoside]", 2534.7),
]

[A] OC[C@H]1O[C@@H](Oc2cc3c(O)cc(O)cc3[o+]c2-c2ccc(O)c(O)c2)[C@H](O)[C@@H](O)[C@@H]1O [Cn-3O-Glc, Cyanidin 3-o-glucoside]
[B] C[C@@H]1O[C@@H](OC[C@H]2O[C@@H](Oc3cc4c(O)cc(O)cc4[o+]c3-c3cc(O)c(O)c(O)c3)[C@H](O)[C@@H](O)[C@@H]2O)[C@H](O)[C@H](O)[C@H]1O [Dp-3-O-Rut, Delphinidin-3-O-rutinoside]
Problem: Which value of Peak Area is greater, the one for A or the one for B ? Bench note: the answer is the label of the chosen record.
Solution: B
(B: 3327.2, A: 349.5)

* * *

assay: Example 3: stability of black currant extract anthocyanosides, 4 hours at 37° C., pH 7.0, with/without DHLA, GSH or L-cysteine (HPLC); type: physicochemical; conditions: pH 7.0, 37° C., 4 hours
outcome-measure: Peak Area, L-cysteine 20 mg

[a] OC[C@H]1O[C@@H](Oc2cc3c(O)cc(O)cc3[o+]c2-c2cc(O)c(O)c(O)c2)[C@H](O)[C@@H](O)[C@@H]1O [Dp-3O-Glc, Delphinidin 3-o-glucoside]
[b] OC[C@H]1O[C@@H](Oc2cc3c(O)cc(O)cc3[o+]c2-c2ccc(O)c(O)c2)[C@H](O)[C@@H](O)[C@@H]1O [Cn-3O-Glc, Cyanidin 3-o-glucoside]
Problem: Param metric = Peak Area, L-cysteine 20 mg; output whichever of a , b has the minimum value. // output: label of the selected item
Solution: b
(b: 186.8, a: 543.0)

[a] C[C@@H]1O[C@@H](OC[C@H]2O[C@@H](Oc3cc4c(O)cc(O)cc4[o+]c3-c3cc(O)c(O)c(O)c3)[C@H](O)[C@@H](O)[C@@H]2O)[C@H](O)[C@H](O)[C@H]1O [Dp-3-O-Rut, Delphinidin-3-O-rutinoside]
[b] C[C@@H]1O[C@@H](OC[C@H]2O[C@@H](Oc3cc4c(O)cc(O)cc4[o+]c3-c3ccc(O)c(O)c3)[C@H](O)[C@@H](O)[C@@H]2O)[C@H](O)[C@H](O)[C@H]1O [Cn-3-O-Rut, Cyanidin-3-O-rutinoside]
Problem: So which one has the bigger Peak Area, L-cysteine 20 mg here, a or b ? Returns: label corresponding to the selected item.
Solution: a
